- System: Aspergillus niger
- measurement-protocol: Antifungal activity against Aspergillus niger clinical isolate after 18 to 24 hrs by micro-dilution method
- Assay type: functional
metric-name: MIC

Query :: State the recorded MIC for this entry: COc1cc(OC)c2c(=O)cc(-c3ccc(OCc4cn(-c5ccccc5Cl)nn4)c(OC)c3)oc2c1
Result :: > 100 µg/mL

Query :: State the recorded MIC for this entry: COc1cc(O)c(C(=O)/C=C/c2ccc(OCc3cn(-c4ccccc4Cl)nn3)c(OC)c2)c(OC)c1
Result :: > 100 µg/mL

Query :: State the recorded MIC for this entry: COc1cc(O)c(C(=O)/C=C/c2ccc(OCc3cn(-c4ccc(F)cc4Cl)nn3)c(OCc3cn(-c4ccc(F)cc4Cl)nn3)c2)c(OC)c1
Result :: > 100 µg/mL
